- TESTED SYSTEM: Carbonic anhydrase 1 (Homo sapiens, UniProt P00915)
- Sequence (P00915 whole entry): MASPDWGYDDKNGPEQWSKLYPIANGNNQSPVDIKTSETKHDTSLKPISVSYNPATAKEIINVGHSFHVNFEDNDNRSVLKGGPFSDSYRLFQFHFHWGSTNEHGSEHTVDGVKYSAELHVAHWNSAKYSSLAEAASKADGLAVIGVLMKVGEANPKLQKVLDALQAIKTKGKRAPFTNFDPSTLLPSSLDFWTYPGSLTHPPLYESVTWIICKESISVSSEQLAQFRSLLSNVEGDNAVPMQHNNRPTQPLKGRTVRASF
Label 1 when Ki < 80 nM; otherwise 0.

COMPOUND: NS(=O)(=O)c1ccc(C(=O)Nc2ccc([Se][C@@H]3O[C@H](CO)[C@H](O)[C@H](O)[C@H]3O)cc2)cc1
CLASSIFICATION: 1
//
COMPOUND: CC(=O)OC[C@H]1O[C@@H]([Se]c2ccc(S(N)(=O)=O)c(N)c2)[C@H](OC(C)=O)[C@@H](OC(C)=O)[C@@H]1OC(C)=O
CLASSIFICATION: 0
//
COMPOUND: NS(=O)(=O)c1ccc(NC(=S)Nc2ccc([Se][C@@H]3O[C@H](CO)C(O)[C@H](O)[C@H]3O)cc2)cc1 (single isomer, unassigned; 16b)
CLASSIFICATION: 1
//
COMPOUND: Nc1cc([Se][C@@H]2O[C@H](CO)[C@@H](O)[C@H](O)[C@H]2O)ccc1S(N)(=O)=O
CLASSIFICATION: 0
//
COMPOUND: CC(=O)OC[C@H]1O[C@@H]([Se]c2ccc(NC(=O)c3ccc(Cl)c(S(N)(=O)=O)c3)cc2)[C@H](OC(C)=O)[C@@H](OC(C)=O)[C@@H]1OC(C)=O
CLASSIFICATION: 0
//
COMPOUND: NS(=O)(=O)c1ccc([Se][C@@H]2O[C@H](CO)[C@H](O)[C@H](O)[C@H]2O)cc1
CLASSIFICATION: 0

====

Lab note: Ki readings collected with Carbonic anhydrase 1 (Homo sapiens, UniProt P00915) for the following compounds.
RECORDED METRIC: Ki (nM)

COMPOUND: NS(=O)(=O)c1ccc([Se][C@@H]2O[C@H](CO)[C@@H](O)[C@H](O)[C@H]2O)cc1
UNIT SPEC: nM
TEST VALUE: 541

COMPOUND: CC(=O)O[C@H]1[C@@H](OC(C)=O)[C@@H](CO)O[C@@H]([Se]c2ccc(S(N)(=O)=O)c(N)c2)[C@@H]1OC(C)=O
UNIT SPEC: nM
TEST VALUE: 6820

COMPOUND: NS(=O)(=O)c1ccc(NC(=S)Nc2ccc([Se][C@@H]3O[C@H](CO)C(O)[C@H](O)[C@H]3O)cc2)cc1 (single isomer, unassigned; 16a)
UNIT SPEC: nM
TEST VALUE: 71.4

COMPOUND: CC(=O)OC[C@H]1O[C@@H]([Se]c2ccc(NC(=S)Nc3ccc(S(N)(=O)=O)cc3)cc2)[C@H](OC(C)=O)[C@@H](OC(C)=O)[C@@H]1OC(C)=O
UNIT SPEC: nM
TEST VALUE: 53.1

====

- PROTOCOL TEXT: in vivo
- ASSAY CONDITIONS: C57BL/6, mouse, 200 mg/kg
- Description: Toxicity in MES induced C57BL/6 mouse model assessed as mortality at 200 mg/kg

COMPOUND: NS(=O)(=O)c1ccc(NC(=S)Nc2ccc([Se][C@@H]3O[C@H](CO)C(O)[C@H](O)[C@H]3O)cc2)cc1 (single isomer, unassigned; 16a)
mortality (%): 30

====

- TESTED SYSTEM: Carbonic anhydrase 2 (Homo sapiens, UniProt P00918)
Listed below: Ki values for each entry.
RECORDED METRIC: Ki (nM)

COMPOUND: NS(=O)(=O)c1cc(C(=O)Nc2ccc([Se][C@@H]3O[C@H](CO)[C@H](O)[C@H](O)[C@H]3O)cc2)ccc1Cl
TEST VALUE: 14.8
//
COMPOUND: CC(=O)OC[C@H]1O[C@@H]([Se]c2ccc(S(N)(=O)=O)cc2)[C@H](OC(C)=O)[C@@H](OC(C)=O)[C@@H]1OC(C)=O
TEST VALUE: 41.4
//
COMPOUND: CC(=O)OC[C@H]1O[C@@H]([Se]c2ccc(NC(=O)c3ccc(S(N)(=O)=O)cc3)cc2)[C@H](OC(C)=O)[C@@H](OC(C)=O)[C@@H]1OC(C)=O
TEST VALUE: 5.1
//
COMPOUND: NS(=O)(=O)c1ccc(NC(=S)Nc2ccc([Se][C@@H]3O[C@H](CO)C(O)[C@H](O)[C@H]3O)cc2)cc1 (single isomer, unassigned; 16a)
TEST VALUE: 5.2
//
COMPOUND: NS(=O)(=O)c1ccc(NC(=S)Nc2ccc([Se][C@@H]3O[C@H](CO)C(O)[C@H](O)[C@H]3O)cc2)cc1 (single isomer, unassigned; 16b)
TEST VALUE: 4.5
//
COMPOUND: NS(=O)(=O)c1ccc([Se][C@@H]2O[C@H](CO)[C@@H](O)[C@H](O)[C@H]2O)cc1
TEST VALUE: 13.8
